ASSAY_COMMENT: in vivo
APPLIED_CONDITIONS: male, Wistar, rat, in vivo, po, 1000 mg/kg, AUC0-1 h, parent compound
MEASUREMENT_KIND: AUC(0-t) (ng·h/mL)
One number for each entry, in ng·h/mL.

Fill in: AUC(0-t) of CCCCOC(=O)c1ccc(O)cc1 [Butyl paraben, Butyl 4-hydroxybenzoate] is ___
860

###

ASSAY_COMMENT: in vivo
APPLIED_CONDITIONS: female, Wistar, rat, in vivo, po, 1000 mg/kg
MEASUREMENT_KIND: Tmax
Please answer using a numeric value trailed by its unit.

Fill in: Tmax of CCCCOC(=O)c1ccc(O)cc1 [Butyl paraben, Butyl 4-hydroxybenzoate] is ___
4.8 min

###

ASSAY_COMMENT: in vivo
APPLIED_CONDITIONS: parent compound; 1000 mg/kg; male
MEASUREMENT_KIND: AUC0-1 h/AUC0–t (%)
One number for each entry, in %.

Below, each entry is followed by its recorded AUC0-1 h/AUC0–t result.
CCCOC(=O)c1ccc(O)cc1 [Propyl paraben, Propyl 4-hydroxybenzoate] = 46
CCOC(=O)c1ccc(O)cc1 [Ethyl paraben, Ethyl 4-hydroxybenzoate] = 62
COC(=O)c1ccc(O)cc1 [Methyl paraben, Methyl 4-hydroxybenzoate] = 75

Next compound, AUC0-1 h/AUC0–t to be filled in.
Fill in: AUC0-1 h/AUC0–t of CCCCOC(=O)c1ccc(O)cc1 [Butyl paraben, Butyl 4-hydroxybenzoate] is ___
54

###

What tlast was measured for each of the following?
ASSAY_COMMENT: in vivo
APPLIED_CONDITIONS: parent compound; 500 mg/kg; male
One number for each entry, in h.

CCOC(=O)c1ccc(O)cc1 [Ethyl paraben, Ethyl 4-hydroxybenzoate] = 8.0
COC(=O)c1ccc(O)cc1 [Methyl paraben, Methyl 4-hydroxybenzoate] = 8.0
CCCCOC(=O)c1ccc(O)cc1 [Butyl paraben, Butyl 4-hydroxybenzoate] = 8.0

Fill in: tlast of CCCOC(=O)c1ccc(O)cc1 [Propyl paraben, Propyl 4-hydroxybenzoate] is ___
4.0

###

ASSAY_COMMENT: in vivo
APPLIED_CONDITIONS: female, Wistar, rat, serum, po, 500 mg/kg, AUC0–t, parent compound
MEASUREMENT_KIND: AUC(0-t) (ng·h/mL)
Numbers only, in ng·h/mL.

Below, each entry is followed by its recorded AUC(0-t) result.
CCCOC(=O)c1ccc(O)cc1 [Propyl paraben, Propyl 4-hydroxybenzoate] = 1120
COC(=O)c1ccc(O)cc1 [Methyl paraben, Methyl 4-hydroxybenzoate] = 9500

Next molecule, AUC(0-t) to be filled in.
Fill in: AUC(0-t) of CCOC(=O)c1ccc(O)cc1 [Ethyl paraben, Ethyl 4-hydroxybenzoate] is ___
1540

###

ASSAY_COMMENT: in vivo
APPLIED_CONDITIONS: male, Wistar, rat, in vivo, po, 1000 mg/kg, Cmax, parent compound
MEASUREMENT_KIND: Cmax (ng/mL)
One number for each entry, in ng/mL.

Fill in: Cmax of CCCCOC(=O)c1ccc(O)cc1 [Butyl paraben, Butyl 4-hydroxybenzoate] is ___
6520

###

ASSAY_COMMENT: in vivo
APPLIED_CONDITIONS: parent compound; 500 mg/kg; female
MEASUREMENT_KIND: Clast (ng/mL)
One number for each entry, in ng/mL.

Below, each entry is followed by its recorded Clast result.
CCCOC(=O)c1ccc(O)cc1 [Propyl paraben, Propyl 4-hydroxybenzoate] = 136
COC(=O)c1ccc(O)cc1 [Methyl paraben, Methyl 4-hydroxybenzoate] = 77.3
CCOC(=O)c1ccc(O)cc1 [Ethyl paraben, Ethyl 4-hydroxybenzoate] = 23.9

Next compound, Clast to be filled in.
Fill in: Clast of CCCCOC(=O)c1ccc(O)cc1 [Butyl paraben, Butyl 4-hydroxybenzoate] is ___
23.9

###

ASSAY_COMMENT: in vivo
APPLIED_CONDITIONS: female, Wistar, rat, in vivo, po, 500 mg/kg, AUC0-1 h, parent compound
MEASUREMENT_KIND: AUC(0-t) (ng·h/mL)
Answers are plain numbers, in ng·h/mL.

Fill in: AUC(0-t) of CCCCOC(=O)c1ccc(O)cc1 [Butyl paraben, Butyl 4-hydroxybenzoate] is ___
149

###

ASSAY_COMMENT: in vivo
APPLIED_CONDITIONS: female, Wistar, rat, in vivo, po, 500 mg/kg, Cmax, parent compound
MEASUREMENT_KIND: Cmax (µg/mL)
Answers are plain numbers, in µg/mL.

Fill in: Cmax of CCCCOC(=O)c1ccc(O)cc1 [Butyl paraben, Butyl 4-hydroxybenzoate] is ___
0.741

###

ASSAY_COMMENT: in vivo
APPLIED_CONDITIONS: male, Wistar, rat, in vivo, po, 500 mg/kg, AUC0–t, parent compound
MEASUREMENT_KIND: AUC(0-t) (ng·h/mL)
Answers are plain numbers, in ng·h/mL.

Fill in: AUC(0-t) of CCCCOC(=O)c1ccc(O)cc1 [Butyl paraben, Butyl 4-hydroxybenzoate] is ___
705

###

ASSAY_COMMENT: in vivo
APPLIED_CONDITIONS: male, Wistar, rat, serum, po, 500 mg/kg
MEASUREMENT_KIND: Tmax

Below, each entry is followed by its recorded Tmax result.
COC(=O)c1ccc(O)cc1 [Methyl paraben, Methyl 4-hydroxybenzoate] = 4.8 min
CCCOC(=O)c1ccc(O)cc1 [Propyl paraben, Propyl 4-hydroxybenzoate] = 10.2 min

Next compound, Tmax to be filled in.
Fill in: Tmax of CCOC(=O)c1ccc(O)cc1 [Ethyl paraben, Ethyl 4-hydroxybenzoate] is ___
4.8 min

###

ASSAY_COMMENT: in vivo
APPLIED_CONDITIONS: parent compound; 1000 mg/kg; female
MEASUREMENT_KIND: AUC0-1 h/AUC0–t (%)
Numbers only, in %.

Below, each entry is followed by its recorded AUC0-1 h/AUC0–t result.
CCCCOC(=O)c1ccc(O)cc1 [Butyl paraben, Butyl 4-hydroxybenzoate] = 47
COC(=O)c1ccc(O)cc1 [Methyl paraben, Methyl 4-hydroxybenzoate] = 55
CCCOC(=O)c1ccc(O)cc1 [Propyl paraben, Propyl 4-hydroxybenzoate] = 49

Next compound, AUC0-1 h/AUC0–t to be filled in.
Fill in: AUC0-1 h/AUC0–t of CCOC(=O)c1ccc(O)cc1 [Ethyl paraben, Ethyl 4-hydroxybenzoate] is ___
50

###

ASSAY_COMMENT: in vivo
APPLIED_CONDITIONS: female, Wistar, rat, serum, oral, 500 mg/kg
What concentration at 1 h was measured for each of the following?
Answers are plain numbers, in ng/mL.

CCCOC(=O)c1ccc(O)cc1 [Propyl paraben, Propyl 4-hydroxybenzoate] = 68

Please look at the items below and tell me concentration at 1 h for each one, in order.
1. COC(=O)c1ccc(O)cc1 [Methyl paraben, Methyl 4-hydroxybenzoate]
2. CCOC(=O)c1ccc(O)cc1 [Ethyl paraben, Ethyl 4-hydroxybenzoate]

1. 338
2. 116

###

ASSAY_COMMENT: in vivo
APPLIED_CONDITIONS: female, Wistar, rat, in vivo, 1000 mg/kg
Method: These studies were conducted similarly to OECD TG 417 applying 500 and 1000 mg/kg body weight (bw) test item via oral gavage to 10 males and 10 females per dose group. […] The limit of quantification was determined as 10 ng/mL for all parabens, and as 130 ng/mL for p-hydroxybenzoic acid. […]
MEASUREMENT_KIND: concentration at 1 h (ng/mL)
Answers are plain numbers, in ng/mL.

Fill in: concentration at 1 h of CCCCOC(=O)c1ccc(O)cc1 [Butyl paraben, Butyl 4-hydroxybenzoate] is ___
59.1

###

ASSAY_COMMENT: in vivo
APPLIED_CONDITIONS: male, Wistar, rat, serum, po, 1000 mg/kg, AUC0–t, parent compound
What AUC(0-t) was measured for each of the following?
One number for each entry, in ng·h/mL.

CCOC(=O)c1ccc(O)cc1 [Ethyl paraben, Ethyl 4-hydroxybenzoate] = 789
CCCOC(=O)c1ccc(O)cc1 [Propyl paraben, Propyl 4-hydroxybenzoate] = 380

Fill in: AUC(0-t) of COC(=O)c1ccc(O)cc1 [Methyl paraben, Methyl 4-hydroxybenzoate] is ___
6150

###

ASSAY_COMMENT: in vivo
APPLIED_CONDITIONS: parent compound; 500 mg/kg; male
What C1h/Cmax was measured for each of the following?
Numbers only, in %.

Below, each entry is followed by its recorded C1h/Cmax result.
CCCOC(=O)c1ccc(O)cc1 [Propyl paraben, Propyl 4-hydroxybenzoate] = 6.7
COC(=O)c1ccc(O)cc1 [Methyl paraben, Methyl 4-hydroxybenzoate] = 2.8
CCOC(=O)c1ccc(O)cc1 [Ethyl paraben, Ethyl 4-hydroxybenzoate] = 4.7

Next molecule, C1h/Cmax to be filled in.
Fill in: C1h/Cmax of CCCCOC(=O)c1ccc(O)cc1 [Butyl paraben, Butyl 4-hydroxybenzoate] is ___
9.1

Where these numbers come from: paper PMC7904550
